Answer each item with its documented IC50.
study target: KRAS G12V (Homo sapiens (Human), UniProt P01116+P62937, G12V)
Sequence (P01116 other isoform, or with tags, fused parts or gaps G12V, one chain of several): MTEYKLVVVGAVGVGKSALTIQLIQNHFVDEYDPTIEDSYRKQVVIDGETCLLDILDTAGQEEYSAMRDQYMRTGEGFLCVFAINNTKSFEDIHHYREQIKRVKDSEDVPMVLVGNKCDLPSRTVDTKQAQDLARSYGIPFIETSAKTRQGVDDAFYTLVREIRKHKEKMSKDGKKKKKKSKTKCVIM
assay notes: Ras-Raf disruption/FRET/MOA assay (BRAF RBD, Cyclophilin A)
Assay type: biochemical
test conditions: read-out: KRAS G12V FRET IC50

| smiles | IC50 |
| --- | --- |
| CCn1c(-c2cccnc2[C@H](C)OC)c2c3cc(ccc31)-c1csc(n1)C[C@H](NC(=O)[C@H](C(C)C)N(C)C(=O)N1CCO[C@H](c3ccccc3)C1)C(=O)N1CCC[C@H](N1)C(=O)OCC(C)(C)C2 | 100 to 1000 nM |
| CCn1c(-c2cccnc2[C@H](C)OC)c2c3cc(ccc31)-c1csc(n1)C[C@H](NC(=O)[C@H](C(C)C)N(C)C(=O)N1CCN(C(C)=O)CC1)C(=O)N1CCC[C@H](N1)C(=O)OCC(C)(C)C2 | 100 to 1000 nM |
| CCn1c(-c2cnccc2COC)c2c3cc(ccc31)-c1cc(O)cc(c1)C[C@H](NC(=O)[C@H](C(C)C)N(C)C(=O)[C@H]1CCN(C(=O)CO)C1)C(=O)N1CCC[C@H](N1)C(=O)OCC(C)(C)C2 | 100 to 1000 nM |
| CCn1c(-c2cccnc2[C@H](C)OC)c2c3cc(ccc31)-c1cc(cc3nc[nH]c13)C[C@H](NC(=O)[C@H](C(C)C)N(C)C(C)=O)C(=O)N1CCC[C@H](N1)C(=O)OCC(C)(C)C2 | > 10000 nM |
| CCn1c(-c2cccnc2[C@H](C)OC)c2c3cc(ccc31)-c1csc(n1)C[C@H](NC(=O)[C@H](C(C)C)N(C)C(=O)N1CC[C@H](O)C1)C(=O)N1CCC[C@H](N1)C(=O)OCC(C)(C)C2 | 100 to 1000 nM |

Batch request: IC50 per item, same order as input.
1. CCn1c(-c2cccnc2[C@H](C)OC)c2c3cc(ccc31)-c1cc(O)cc(c1)C[C@H](NC(=O)[C@H](C(C)C)N(C)C(=O)[C@H]1OCC[C@H]1c1ccccc1)C(=O)N1CCC[C@H](N1)C(=O)OCC(C)(C)C2
2. CCn1c(-c2cnccc2COC)c2c3cc(ccc31)-c1cc(O)cc(c1)C[C@H](NC(=O)[C@@H](NC(=O)c1ncco1)C(C)C)C(=O)N1CCC[C@H](N1)C(=O)OCC(C)(C)C2
3. CCn1c(-c2cccnc2[C@H](C)OC)c2c3cc(ccc31)-c1csc(n1)C[C@H](NC(=O)[C@H](C(C)C)N(C)C(=O)N1C[C@H]3CN(C)CC[C@H]31)C(=O)N1CCC[C@H](N1)C(=O)OCC(C)(C)C2
4. CCn1c(-c2cnccc2COC)c2c3cc(ccc31)-c1cc(O)cc(c1)C[C@H](NC(=O)[C@H](C(C)C)N(C)C(=O)N1CCOCC1)C(=O)N1CCC[C@H](N1)C(=O)OCC(C)(C)C2

Output:
["100 to 1000 nM", "1000 to 10000 nM", "1000 to 10000 nM", "100 to 1000 nM"]

###

study target: KRAS WT (Homo sapiens (Human), UniProt P01116+P62937)
Sequence (P01116 other isoform, or with tags, fused parts or gaps): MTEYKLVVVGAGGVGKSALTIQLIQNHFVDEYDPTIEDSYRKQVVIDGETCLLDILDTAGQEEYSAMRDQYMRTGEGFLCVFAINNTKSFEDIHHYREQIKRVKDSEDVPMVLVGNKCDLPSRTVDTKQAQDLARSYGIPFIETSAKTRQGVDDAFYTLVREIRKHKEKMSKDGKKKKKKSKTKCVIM
Sequence (P62937 whole entry): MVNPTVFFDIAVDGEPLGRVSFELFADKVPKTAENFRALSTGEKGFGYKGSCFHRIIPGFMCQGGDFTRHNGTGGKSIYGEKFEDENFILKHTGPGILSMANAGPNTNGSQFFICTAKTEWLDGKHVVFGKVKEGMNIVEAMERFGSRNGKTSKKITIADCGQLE
assay notes: Ras-Raf disruption/FRET/MOA assay, KRAS WT
Type: biochemical
pIC50: −log10 of the molar value.
Assignment: determine reported pIC50 for the given compounds.

| compound | study target | measurement |
| --- | --- | --- |
| CCn1c(-c2cccnc2[C@H](C)OC)c2c3cc(ccc31)-c1cc(O)cc(c1)C[C@H](NC(=O)[C@H](C(C)C)N(C)C(=O)[C@@]1(C)CCCN1C(=O)[C@H]1CN1)C(=O)N1CCC[C@H](N1)C(=O)OCC(C)(C)C2 [Example 239] | KRAS WT (Homo sapiens (Human), UniProt P01116+P62937) | 7.00 to 8.00 |

We next turn to a different compound, shown below.
Input: Let me know recorded pIC50 for CCn1c(-c2cnccc2COC)c2c3cc(ccc31)-c1cc(O)cc(c1)C[C@H](NC(=O)[C@H](C(C)C)N(C)C(=O)CN(C)C(=O)[C@H]1N[C@H]1C(=O)OC)C(=O)N1CCC[C@H](N1)C(=O)OCC(C)(C)C2 [Example 51] , thanks.
Output: 6.00 to 7.00
